The values you see were collected from the supplement of paper PMC4862054.

- System: BT-474
- ASSAY NOTES: normalised viability (% of control), CellTiter-Blue; higher = more viable cells (100 = DMSO, 0 = benzethonium chloride kill control)
- MEASUREMENT PARAMETERS: incubation time: 72 h
ASSAY ENDPOINT: normalised viability (%)
Number only, in %; omit the unit.

Q: Requested field: normalised viability. Item: CN1CC[C@H](c2c(O)cc(O)c3c(=O)cc(-c4ccccc4Cl)oc23)[C@H](O)C1 [Alvocidib] (1 nM)
Result: 92.3

Q: Requested field: normalised viability. Item: COc1cccc2cc(-c3nc([C@H]4CC[C@H](C(=O)O)CC4)n4ncnc(N)c34)[nH]c12 [OSI-027] (1 nM)
Result: 85.3

Q: Requested field: normalised viability. Item: CO[C@H]1C[C@@H]2CC[C@@H](C)[C@@](O)(O2)C(=O)C(=O)N2CCCC[C@H]2C(=O)O[C@H]([C@H](C)C[C@@H]2CC[C@@H](OC(=O)C(C)(CO)CO)[C@H](OC)C2)CC(=O)[C@H](C)/C=C(\C)[C@@H](O)[C@@H](OC)C(=O)[C@H](C)C[C@H](C)/C=C/C=C/C=C/1C [Temsirolimus] (0.1 nM)
Result: 95

Q: Requested field: normalised viability. Item: CN(C)C/C=C/C(=O)Nc1cc2c(Nc3ccc(F)c(Cl)c3)ncnc2cc1O[C@H]1CCOC1 [Afatinib] (1 nM)
Result: 85.9

* * *

- Test system: CAL-85-1
- ASSAY NOTES: normalised viability (% of control), CellTiter-Blue; higher = more viable cells (about 100 = DMSO control)
- MEASUREMENT PARAMETERS: 100 nM; incubation time: 72 h
Kindly supply the reported normalised viability values for the records listed here.
Number only, in %; omit the unit.

Q: Requested field: normalised viability. Item: N#CC[C@H](C1CCCC1)n1cc(-c2ncnc3[nH]ccc23)cn1 [Ruxolitinib]
Result: 110

Q: Requested field: normalised viability. Item: S=c1[nH]cnc2nc[nH]c12 [Mercaptopurine]
Result: 103

Q: Requested field: normalised viability. Item: C=CCNC1=C2C[C@@H](C)C[C@H](OC)[C@H](O)[C@@H](C)/C=C(\C)[C@H](OC(N)=O)[C@@H](OC)/C=C\C=C(/C)C(=O)NC(=CC1=O)C2=O [Tanespimycin]
Result: 82.4

Q: Requested field: normalised viability. Item: COc1cc(Nc2ncc3c(n2)-c2ccc(Cl)cc2C(c2c(F)cccc2OC)=NC3)ccc1C(=O)O [MLN8237]
Result: 69.4

* * *

Kindly supply the reported EC50, CellTiter-Glo values for the records listed here.
- System: SK-BR-3
- MEASUREMENT PARAMETERS: 72 h
Number only, in nM; omit the unit.

Q: Requested field: EC50, CellTiter-Glo. Item: CO[C@H]1C[C@@H]2CC[C@@H](C)[C@@](O)(O2)C(=O)C(=O)N2CCCC[C@H]2C(=O)O[C@H]([C@H](C)C[C@@H]2CC[C@@H](OC(=O)C(C)(CO)CO)[C@H](OC)C2)CC(=O)[C@H](C)/C=C(\C)[C@@H](O)[C@@H](OC)C(=O)[C@H](C)C[C@H](C)/C=C/C=C/C=C/1C
Result: 0.46

Q: Requested field: EC50, CellTiter-Glo. Item: CN(C)C/C=C/C(=O)Nc1cc2c(Nc3ccc(F)c(Cl)c3)ncnc2cc1O[C@H]1CCOC1
Result: 10.7

Q: Requested field: EC50, CellTiter-Glo. Item: COc1cccc2cc(-c3nc([C@H]4CC[C@H](C(=O)O)CC4)n4ncnc(N)c34)[nH]c12
Result: 594

Q: Requested field: EC50, CellTiter-Glo. Item: CN1CC[C@H](c2c(O)cc(O)c3c(=O)cc(-c4ccccc4Cl)oc23)[C@H](O)C1
Result: 218
